binding signal for assorted sequences
Target: POU1 (OCT1 POU domain) (human, UniProt P14859 260-458)
Sequence (P14859 260-458): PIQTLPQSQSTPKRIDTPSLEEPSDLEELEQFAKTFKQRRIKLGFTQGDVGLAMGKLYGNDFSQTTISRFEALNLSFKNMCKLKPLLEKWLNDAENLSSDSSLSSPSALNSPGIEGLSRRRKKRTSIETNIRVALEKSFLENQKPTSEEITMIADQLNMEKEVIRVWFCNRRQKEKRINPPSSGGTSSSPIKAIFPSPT
Experiment: EMSA-SELEX-seq; no BOB1; 20 mM Tris-HCl pH 7.6, 140 mM NaCl, 10% glycerol, 0.5 mM EDTA, 0.05% Triton X-100, 0.1 mg/mL BSA, 0.1 mg/mL poly(dI-dC), 5 mM DTT, room temperature, 20 min; high values mean tight binding
Conditions: protein: recombinant; dsDNA, one strand shown

The cases that follow already have their binding signal on record.
>>> df
   chain_sequence                       result
0        AACTTAAA  0.0526 % of ANNNNAAN 8-mers
1        ATGTAAAG   0.489 % of ANNNNAAN 8-mers

Query block: What measured binding signal goes with ATTAGAAT ?
Result block: 0.5 % of ANNNNAAN 8-mers

Query block: Also, AAGAAAAT please.
Result block: 0.158 % of ANNNNAAN 8-mers

Query block: Here is the next sequence: ACACTAAA
Result block: 0.0256 % of ANNNNAAN 8-mers

Query block: And the next one, AGGCAAAT ?
Result block: 0.77 % of ANNNNAAN 8-mers

Query block: What do you have for ATATCAAA ?
Result block: 0.0877 % of ANNNNAAN 8-mers

Query block: Likewise for AGCTAAAA ?
Result block: 0.0282 % of ANNNNAAN 8-mers

Query block: Consider next the sequence AGGCTAAG in the same way.
Result block: 0.0362 % of ANNNNAAN 8-mers

Query block: What do you get for ACGTGAAC ?
Result block: 0.0153 % of ANNNNAAN 8-mers

Query block: Then this sequence: AACCTAAT
Result block: 0.0534 % of ANNNNAAN 8-mers

* * *

Target: POU1 (OCT1 POU domain) (human, UniProt P14859 260-458)
Assay: EMSA-SELEX-seq; no BOB1; 20 mM Tris-HCl pH 7.6, 140 mM NaCl, 10% glycerol, 0.5 mM EDTA, 0.05% Triton X-100, 0.1 mg/mL BSA, 0.1 mg/mL poly(dI-dC), 5 mM DTT, room temperature, 20 min; high values mean tight binding
Details: protein: recombinant; dsDNA, one strand shown
measure name: binding signal

Record excerpt, results attached:
In [3]: df
Out[3]:
   chain_sequence                       result
0        ACCATAAC   0.032 % of ANNNNAAN 8-mers
1        ATAGTAAG  0.0633 % of ANNNNAAN 8-mers
2        AGCCTAAG  0.0183 % of ANNNNAAN 8-mers

Query block: Could you tell me which binding signal is on file for ACCACAAT ?
Result block: 0.0179 % of ANNNNAAN 8-mers

Query block: What do we get for ACACTAAT ?
Result block: 0.0568 % of ANNNNAAN 8-mers

Query block: Quick one: ACGTCAAT
Result block: 0.0339 % of ANNNNAAN 8-mers

* * *

Below, each entry is listed alongside its reported binding signal.
Biological target: POU2 (OCT2 POU domain) (human, UniProt P09086 175-386)
Sequence: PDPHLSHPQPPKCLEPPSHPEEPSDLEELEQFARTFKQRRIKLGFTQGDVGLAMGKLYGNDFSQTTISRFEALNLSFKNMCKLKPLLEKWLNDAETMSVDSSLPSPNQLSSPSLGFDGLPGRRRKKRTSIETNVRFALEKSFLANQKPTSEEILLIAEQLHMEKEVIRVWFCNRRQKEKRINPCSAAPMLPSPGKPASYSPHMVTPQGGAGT
Assay: EMSA-SELEX-seq; no BOB1; 20 mM Tris-HCl pH 7.6, 140 mM NaCl, 10% glycerol, 0.5 mM EDTA, 0.05% Triton X-100, 0.1 mg/mL BSA, 0.1 mg/mL poly(dI-dC), 5 mM DTT, room temperature, 20 min; high values mean tight binding
Settings: protein: recombinant; dsDNA, one strand shown

>>> df
   chain_sequence    measure_name                       result
0        AATGTAAC  binding signal  0.0639 % of ANNNNAAN 8-mers
1        AAGACAAA  binding signal  0.0472 % of ANNNNAAN 8-mers
2        ACGTTAAA  binding signal  0.0506 % of ANNNNAAN 8-mers
3        ACTTTAAC  binding signal  0.0345 % of ANNNNAAN 8-mers
4        AGTCCAAT  binding signal  0.0466 % of ANNNNAAN 8-mers
5        AAGGGAAG  binding signal  0.0541 % of ANNNNAAN 8-mers
6        ACGCTAAC  binding signal  0.0121 % of ANNNNAAN 8-mers
7        AGTCTAAA  binding signal  0.0501 % of ANNNNAAN 8-mers

Query block: Looking for the measured binding signal of AAGATAAA , can you help?
Result block: 0.0662 % of ANNNNAAN 8-mers

Query block: And what about the sequence ACTTTAAA ?
Result block: 0.0817 % of ANNNNAAN 8-mers
